Cited source: patent US6492328B2

# System: S. maltophilia 18CP
# Procedure Summary: Novispirins vs S. maltophilia (Table 5)
# Format: cell-based, Stenotrophomonas maltophilia
# Design: unit not given here
# Experimental Conditions: +175 mM NaCl; strain 18CP
Where no end group is shown, it is not given here.
Assign activity vs S. maltophilia to each entry below.
Reply with just the number.

// recorded activity vs S. maltophilia for KNLRRITRKIIHIIKKYG [T7 Novispirin, K N L R R I T R K I I H I I K K Y G] : 0.62

activity vs S. maltophilia reported for this substance KNLRRIGRKIIHIIKKYG [G7 Novispirin, K N L R R I G R K I I H I I K K Y G] : 0.70

So, KNLRRIIRKGIHIIKKYG-OH [G10 Novispirin, K N L R R I I R K G I H I I K K Y G] ? Its activity vs S. maltophilia was 1.30

Item: GLLRRLRKKIGEIFKKYG [PGG, reference compound] | activity vs S. maltophilia: 2.34
